Tested on: Plasmodium falciparum
Assay: GSK_TCMDC: Inhibition of Plasmodium falciparum 3D7 in whole red blood cells, using parasite LDH activity as an index of growth. Test compounds present at 2uM
Type: functional
assayReadout: Inhibition (%)

[[record]]
molecule = "Cc1cc(N)c2cc(NC(=O)c3cccc4ccccc34)ccc2n1.Cl"
assayreadout = "Inhibition"
endpointresult = 98

[[record]]
molecule = "CCCCN1CC[C@@H](CCC(O)c2cc(OCCC)nc3ccc(OC)cc23)[C@@H](CC)C1.O=C(O)C(=O)O (stereo partly drawn)"
assayreadout = "Inhibition"
endpointresult = 100

[[record]]
molecule = "O=C(Nc1cccc(-c2cccc(-c3nc4ccccc4[nH]3)c2)c1)Nc1ccc(F)c(F)c1F"
assayreadout = "Inhibition"
endpointresult = 98

[[record]]
molecule = "Cc1cccc2nc(-c3cccc(-c4ccc(NC(=O)C(C)(C)c5ccccn5)cc4)c3)[nH]c12"
assayreadout = "Inhibition"
endpointresult = 97

[[record]]
molecule = "Cc1ccc(Oc2ncccc2C(=O)Nc2cccc3cccnc23)c(C)c1"
assayreadout = "Inhibition"
endpointresult = 99

[[record]]
molecule = "COc1cccc(-c2ccc(O)c(CNCCc3cccc(F)c3)c2)n1"
assayreadout = "Inhibition"
endpointresult = 96

[[record]]
molecule = "COc1cc2c(cc1C(F)(F)F)N(C(=O)Nc1cc(-c3ccncc3)cc(-c3cccnc3)c1)CC2"
assayreadout = "Inhibition"
endpointresult = 95

[[record]]
molecule = "COc1ccc2nccc([C@@H](O)CN3CCC(NCc4ccc5c(c4)NC(=O)C(C)(C)O5)CC3)c2c1.O=C(O)C(=O)O"
assayreadout = "Inhibition"
endpointresult = 100

[[record]]
molecule = "CCc1n[nH]c(C(=O)NC2CCN(CC3(c4ccc(OC)cc4)CCCCC3)CC2)c1C"
assayreadout = "Inhibition"
endpointresult = 90

[[record]]
molecule = "Cl.Cn1c2ccccc2c2c3ccccc3c(CNC(CO)(CO)CO)cc21"
assayreadout = "Inhibition"
endpointresult = 96

[[record]]
molecule = "Nc1nc2c(c(=O)[nH]1)CN(S(=O)(=O)c1ccc(C(=O)N[C@@H](CCC(=O)O)C(=O)O)cc1)CC2"
assayreadout = "Inhibition"
endpointresult = 95

[[record]]
molecule = "CCCNC[C@@H](O)[C@H](Cc1ccccc1)NC(=O)c1cc2c3c(c1)c(CC)cn3CCS(=O)(=O)N2C"
assayreadout = "Inhibition"
endpointresult = 97

[[record]]
molecule = "CC(Nc1ncc(-c2ccsc2)c(-c2nccs2)n1)c1ccc2c(c1)OCCO2 (stereo not drawn)"
assayreadout = "Inhibition"
endpointresult = 81

[[record]]
molecule = "CN(C)CC1CCCN1Cc1ccccc1-c1cnn(C)c(=O)c1Oc1ccccc1F.O=C(O)C(F)(F)F (stereo not drawn)"
assayreadout = "Inhibition"
endpointresult = 95

[[record]]
molecule = "Fc1ccc2[nH]c(-c3ccc(-c4ccc(CNCCc5ccncc5)cc4)cc3)nc2c1.O=C(O)C(F)(F)F"
assayreadout = "Inhibition"
endpointresult = 100

[[record]]
molecule = "O=C(Nc1cccc(-c2ccc(-c3nc4cc(F)ccc4[nH]3)cc2)c1)c1ccncc1"
assayreadout = "Inhibition"
endpointresult = 100

[[record]]
molecule = "O=C(O)C(F)(F)F.Oc1ccc(CCCNc2nc(NCc3ccccc3-c3ccccc3)nc(N3CCNCC3)n2)cc1"
assayreadout = "Inhibition"
endpointresult = 94

[[record]]
molecule = "CN1CCC(C(=O)N(Cc2ccc(-c3ccc(CNCCc4ccc(S(C)(=O)=O)cc4)cn3)cc2)C2Cc3ccccc3C2)CC1.O=C(O)C(F)(F)F"
assayreadout = "Inhibition"
endpointresult = 98

